B1: Osa-1-4 twister ribozyme (parent)
chain: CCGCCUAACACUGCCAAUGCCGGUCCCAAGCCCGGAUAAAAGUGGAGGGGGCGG

Variants of: B1
RUN_DESCRIPTION: self-cleavage, relative activity (ratio to wild type); higher = more cleavage; co-transcriptional
Threshold rule: self-cleavage greater than or equal to 0.1 is 1; below that, -1.

Solved entries:
- INPUT_SEQUENCE: "CCGCCUAACACAGCCAACGCCGGUCCCAAGCCCGGAUAAAAGUGGAGGGGGCGG [U12A U18C]"
  ASSIGNED_LABEL: 1
- INPUT_SEQUENCE: "CCGCCUAACACUGCCAAUGCCGGUCCCAAGCCCGGAUAAUAGUGGAGGGGGUGG [A40U C52U]"
  ASSIGNED_LABEL: 1
- INPUT_SEQUENCE: "CCGCCUAACGCUGCCAAAGCCGGUCCCAAGCCCGGAUAAAAGUGGAGGGGGCGG [A10G U18A]"
  ASSIGNED_LABEL: 1

query: Tell me whether self-cleavage is at least 0.1 here: CCGCCUAACACUGCCAAUGCCGGUCCCAAGCCCGGAUAAAAGUGGAGGGACCGG [G50A G51C]
result: 1

query: Tell me whether self-cleavage is at least 0.1 here: CCGCCUAACACUGCCAAUGCCGGUCCCAAGCCCGGAUAAAAUUGCAGGGGGCGG [G42U G45C]
result: -1

query: Tell me whether self-cleavage is at least 0.1 here: CCGCCUAACACUGCCAAUGCCGGUCCCAAGCCCGGAUAAAAGUGGACGGGCCGG [G47C G51C]
result: -1

query: Tell me whether self-cleavage is at least 0.1 here: CCGCCUAACACUGCCAAGGCCGGUCCCAAGCCCGGAUAAAAGUGGAGGGUGCGG [G50U U18G]
result: 1

query: Tell me whether self-cleavage is at least 0.1 here: CCGCCUAACACUGCCACUGCCGCUCCCAAGCCCGGAUAAAAGUGGAGGGGGCGG [A17C G23C]
result: -1
